# ASSAY: Ex vivo biodistribution in H69-tumor bearing mice
# TEST PARAMETERS: mouse, in vivo, Uptake in Intestines, 4 h block (co-injected 50 nmol DOTA-TATE), n = 4
ASSAY METRIC: tissue uptake at 4 h (%ID/g)
Give just the number in %ID/g; leave the unit off.

INPUT: Answer with the recorded tissue uptake at 4 h of C[C@@H](O)[C@H](NC(=O)[C@@H]1CSSC[C@H](NC(=O)[C@@H](Cc2ccccc2)NC(=O)CN2CCN(CC(=O)O)CCN(CC(=O)O)CCN(CC(=O)O)CC2)C(=O)N[C@@H](Cc2ccc(O)cc2)C(=O)N[C@H](Cc2c[nH]c3ccccc23)C(=O)N[C@@H](CCCCN)C(=O)N[C@@H]([C@@H](C)O)C(=O)N1)C(=O)O [[^111In]In-DOTA-TATE, metal not drawn, reference compound] only.
OUTPUT: 0.57
